METHOD_SUMMARY: In vivo cassette dosing pharmacokinetic study in normal mice
Set-up: species or system mouse
EXPERIMENTAL_PARAMETERS: male, ICR, mouse, plasma, iv, 5 mg/kg, Vd (apparent volume of distribution), cassette C, IV approximately 5 mg/kg, normal mice
PARAMETER_MEASURED: Vd (L/kg)
// return numeric value only (unit: L/kg, not printed)

// Vd lookup, compound = COc1cc2ncnc(Nc3ccc(F)c(Cl)c3)c2cc1OCCCN1CCOCC1 , result: 8.9

###

METHOD_SUMMARY: In vivo cassette dosing pharmacokinetic study in normal mice
Parameters: species or system mouse
EXPERIMENTAL_PARAMETERS: male, ICR, mouse, plasma, iv, 5 mg/kg, CL (total systemic clearance), cassette C, IV approximately 5 mg/kg, normal mice
PARAMETER_MEASURED: clearance
Remember to put the unit after the number in your answer.

Entry COc1cc2ncnc(Nc3ccc(F)c(Cl)c3)c2cc1OCCCN1CCOCC1 [Gefitinib] — recorded clearance = 2.6 L/h/kg

###

METHOD_SUMMARY: In vivo cassette dosing pharmacokinetic study in normal mice
Design: species or system mouse
EXPERIMENTAL_PARAMETERS: male, ICR, mouse, brain, intravenous, 5 mg/kg, Pb (brain partition coefficient, AUCb/AUCp), cassette C, IV approximately 5 mg/kg, normal mice
PARAMETER_MEASURED: Kp
I'd appreciate a reply containing only the number, no unit.

So, COc1cc2ncnc(Nc3ccc(F)c(Cl)c3)c2cc1OCCCN1CCOCC1 [Gefitinib] ? Its Kp was 1.9

###

METHOD_SUMMARY: In vivo cassette dosing pharmacokinetic study in normal mice
Set-up: species or system mouse
EXPERIMENTAL_PARAMETERS: male, ICR, mouse, brain, intravenous, 5 mg/kg, Pb (brain partition coefficient, AUCb/AUCp), cassette B, IV approximately 5 mg/kg, normal mice
PARAMETER_MEASURED: Kp
Answer as a number with no unit attached.

// Kp value for COc1cc2ncnc(Nc3ccc(F)c(Cl)c3)c2cc1OCCCN1CCOCC1 [Gefitinib] : 2.5

###

METHOD_SUMMARY: In vivo cassette dosing pharmacokinetic study in normal mice
Parameters: species or system mouse
EXPERIMENTAL_PARAMETERS: male, ICR, mouse, plasma, iv, 5 mg/kg, CL (total systemic clearance), cassette B, IV approximately 5 mg/kg, normal mice
PARAMETER_MEASURED: clearance (mL/min/kg)
Numeric answer only, unit mL/min/kg assumed.

Per the records, this molecule ( COc1cc2ncnc(Nc3ccc(F)c(Cl)c3)c2cc1OCCCN1CCOCC1 ) has clearance equal to 71.7
